target: recombinant NcCDPK1 (Neospora caninum, UniProt F0V9W9); experiment: biochemical
Sequence (F0V9W9 entry or part of it): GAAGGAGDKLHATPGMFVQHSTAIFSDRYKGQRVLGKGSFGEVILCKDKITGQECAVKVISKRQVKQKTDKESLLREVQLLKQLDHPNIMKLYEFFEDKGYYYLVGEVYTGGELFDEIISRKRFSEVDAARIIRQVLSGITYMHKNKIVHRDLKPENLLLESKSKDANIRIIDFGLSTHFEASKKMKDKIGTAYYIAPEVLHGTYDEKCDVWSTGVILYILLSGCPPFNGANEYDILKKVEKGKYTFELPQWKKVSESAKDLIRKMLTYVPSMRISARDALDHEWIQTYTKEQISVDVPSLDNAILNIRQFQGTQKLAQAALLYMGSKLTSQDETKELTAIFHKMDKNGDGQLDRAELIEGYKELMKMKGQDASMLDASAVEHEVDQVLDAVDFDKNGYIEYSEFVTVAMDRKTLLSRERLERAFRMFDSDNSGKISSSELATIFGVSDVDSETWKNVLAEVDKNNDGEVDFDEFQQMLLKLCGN
Parameter: pIC50
Reminder that pIC50 means the negative base-10 logarithm of the concentration expressed in mol/L.

Query :: Dear colleague, I am looking for the recorded pIC50 of the following compound: CCOc1ccc2cc(-c3nn(CC4CCN(C)CC4)c4ncnc(N)c34)ccc2c1 [compound 1294]
Result :: 8.59

====

target: recombinant NcCDPK1 (Neospora caninum); assay: biochemical; conditions: concentration that inhibits protein kinase activity by 50%; 10 μM ATP, 40 μM BioSyntide-2, 3.3 nM enzyme; read-out: IC50 NcCDPK1
Below: a set of entries, each annotated with reported IC50.
// return numeric value only (unit: nM, not printed)

>>> number("CCOc1ccc2cc(-c3nn(C4CCN(C)CC4)c4ncnc(N)c34)ccc2c1 [15h]")
1.4
>>> number("CC(C)(C)n1nc(-c2ccc3ccccc3c2)c2c(N)ncnc21 [11b]")
1.7

Query :: Request body: readout IC50, system recombinant NcCDPK1 (Neospora caninum), query CCOc1ccc2cc(-c3nn(CC4CCOCC4)c4ncnc(N)c34)ccc2n1 . Return the value.
Result :: 2

Query :: Could you do the same for CCOc1ccc2cc(-c3nn(CC4CCNCC4)c4ncnc(N)c34)ccc2n1 [16n] , please?
Result :: 1.7

Query :: Query CCOc1ccc2cc(-c3nn(C4CCN(CC)CC4)c4ncnc(N)c34)ccc2c1 [15i] next
Result :: 2.3
